These measurements were taken from ChEMBL document CHEMBL2439960.

- measurement.notes: Apparent clearance in Swiss mouse at 50 mg/kg, ip after 1 to 24 hrs by LC-MS/MS analysis
- Format: ADME, organism-based
- Set-up: dose 50 mg/kg, route intraperitoneal
- conditions.used: in vivo, read-out: CL(app)
measured.quantity: CL/F (mL/min/kg)

compound="CCN(CC)CCCC(C)Nc1ccnc2cc(Cl)ccc12 (stereo unspecified)" measured=17

###

- measurement.notes: Drug degradation in mouse serum at 150 uM after 48 hrs by HPLC analysis
- Format: ADME, cell-free
- conditions.used: read-out: Drug degradation
measured.quantity: metabolised at 48 h, 150 µM

smi=CC1=C2Cc3cc(ccc3O)C(=O)O[C@H](C(C)(C)Br)CC[C@](C)(O)[C@H](Br)CC[C@]2(C)[C@@H](Br)CC1 measured=27%

###

- measurement.notes: Half life in BALB/c mouse at 23 mg/kg, iv after 1 to 24 hrs by LC-MS/MS analysis
- Type: ADME, organism-based
- Set-up: dose 23 mg/kg, route intravenous
- conditions.used: in vivo
measured.quantity: half-life (min)

smi=CC1=C2Cc3cc(ccc3O)C(=O)O[C@H](C(C)(C)Br)CC[C@](C)(O)[C@H](Br)CC[C@]2(C)[C@@H](Br)CC1 measured=45

###

- measurement.notes: AUC in BALB/c mouse at 23 mg/kg, iv after 1 to 24 hrs by LC-MS/MS analysis
- Type: ADME, organism-based
- Parameters: dose 23 mg/kg, route intravenous
- conditions.used: plasma
measured.quantity: AUC (ng·h/mL)

smi=CC1=C2Cc3cc(ccc3O)C(=O)O[C@H](C(C)(C)Br)CC[C@](C)(O)[C@H](Br)CC[C@]2(C)[C@@H](Br)CC1 unit_spec=ng·h/mL measured=26000

###

- measurement.notes: Apparent volume of distribution in BALB/c mouse at 23 mg/kg, iv after 1 to 24 hrs by LC-MS/MS analysis
- Assay type: ADME, organism-based
- Set-up: dose 23 mg/kg, route intravenous
- conditions.used: in vivo, read-out: Vd(app)
measured.quantity: Vd (L/kg)

smi=CC1=C2Cc3cc(ccc3O)C(=O)O[C@H](C(C)(C)Br)CC[C@](C)(O)[C@H](Br)CC[C@]2(C)[C@@H](Br)CC1 measured=0.95

###

- measurement.notes: Drug metabolism in human liver microsomes at 10 uM after 24 hrs by LC-MS analysis in absence of UDPGA
- Assay type: ADME, Microsome
- conditions.used: read-out: Drug metabolism
measured.quantity: metabolised at 24 h, 10 µM (%)

smi=CC1=C2Cc3cc(ccc3O)C(=O)O[C@H](C(C)(C)Br)CC[C@](C)(O)[C@H](Br)CC[C@]2(C)[C@@H](Br)CC1 unit_spec=% measured=61

###

- measurement.notes: AUC in BALB/c mouse at 23 mg/kg, ip after 1 to 24 hrs by LC-MS/MS analysis
- Format: ADME, organism-based
- Parameters: dose 23 mg/kg, route intraperitoneal
- conditions.used: plasma
measured.quantity: AUC

smi=CC1=C2Cc3cc(ccc3O)C(=O)O[C@H](C(C)(C)Br)CC[C@](C)(O)[C@H](Br)CC[C@]2(C)[C@@H](Br)CC1 measured="20000 ng·h/mL"

###

- measurement.notes: Drug metabolism in human liver S9 fraction at 10 uM after 24 hrs by LC-MS analysis
- Assay type: ADME, subcellular
- conditions.used: read-out: Drug metabolism
measured.quantity: metabolised at 24 h, 10 µM (%)

smi=CC1=C2Cc3cc(ccc3O)C(=O)O[C@H](C(C)(C)Br)CC[C@](C)(O)[C@H](Br)CC[C@]2(C)[C@@H](Br)CC1 measured_quantity="metabolised at 24 h, 10 µM" measured=55

###

- measurement.notes: Cmax in BALB/c mouse at 23 mg/kg, ip after 1 to 24 hrs by LC-MS/MS analysis
- Type: ADME, organism-based
- Parameters: dose 23 mg/kg, route intraperitoneal
- conditions.used: in vivo
measured.quantity: Cmax (ng/mL)

smi=CC1=C2Cc3cc(ccc3O)C(=O)O[C@H](C(C)(C)Br)CC[C@](C)(O)[C@H](Br)CC[C@]2(C)[C@@H](Br)CC1 measured_quantity=Cmax measured=5800

###

- measurement.notes: Initial plasma concentration in BALB/c mouse at 23 mg/kg, iv after 1 to 24 hrs by LC-MS/MS analysis
- Format: ADME, organism-based
- Design: dose 23 mg/kg, route intravenous
measured.quantity: C0 (ng/mL)

smi=CC1=C2Cc3cc(ccc3O)C(=O)O[C@H](C(C)(C)Br)CC[C@](C)(O)[C@H](Br)CC[C@]2(C)[C@@H](Br)CC1 unit_spec=ng/mL measured=24000

###

- Tested on: Liver microsomes
- measurement.notes: Intrinsic clearance in human liver microsomes at 10 uM after 24 hrs by LC-MS analysis in absence of UDPGA
- Assay type: ADME, Microsome
measured.quantity: CLint (mL/min/kg)

smi=CC1=C2Cc3cc(ccc3O)C(=O)O[C@H](C(C)(C)Br)CC[C@](C)(O)[C@H](Br)CC[C@]2(C)[C@@H](Br)CC1 measured_quantity=CLint unit_spec=mL/min/kg measured=0.72
